Molecular target: 26S proteasome non-ATPase regulatory subunit 14 (Homo sapiens) (UniProt O00487)
Sequence (O00487 whole entry, looked up): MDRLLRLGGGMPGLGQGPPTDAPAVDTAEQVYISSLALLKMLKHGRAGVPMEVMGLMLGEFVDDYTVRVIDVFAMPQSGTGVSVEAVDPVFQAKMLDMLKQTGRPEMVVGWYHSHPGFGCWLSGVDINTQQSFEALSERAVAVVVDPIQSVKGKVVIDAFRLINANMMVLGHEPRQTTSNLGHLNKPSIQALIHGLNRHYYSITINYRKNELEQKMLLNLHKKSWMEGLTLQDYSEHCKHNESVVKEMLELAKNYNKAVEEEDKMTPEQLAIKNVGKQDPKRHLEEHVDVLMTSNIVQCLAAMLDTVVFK
Experiment: inhibition of 26S proteasome subunit Rpn11 – biochemical, fluorescence polarization, uHTS, primary screen (AID 588493)
Conditions: human 26S proteasome, Ub4-pepOG fluorescence polarization; at 20 µM; 20S core pre-blocked with epoxomicin
About 2,100 (0.58%) of roughly 360,000 compounds were called active.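 How the source made its calls: active means inhibition at 20 µM, scaled to each plate's controls, above about 33% (limit read from the data); inactive means the rest.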 This excerpt belongs to a sample that is enriched for actives.
# output must be one of 1 (active), 0 (inactive)

## Input Outcome logged for COc1cccc(-c2nn(-c3ccccc3)cc2/C=C(\C#N)C(=O)NCCCn2ccnc2)c1 in this assay:
## Output 1

## Input Outcome logged for CCCCN(C=O)c1c(CC)nc2c(OCCC3CCCCC3)cccn12 in this assay:
## Output 0

## Input Outcome logged for COCCCn1c(CCC(=O)O)ccc1-c1ccc(F)cc1 in this assay:
## Output 0

## Input Outcome logged for COc1cc(OC)cc(C(=O)NCCCn2ccnc2)c1 in this assay:
## Output 0

## Input Outcome logged for CCC(=C/c1sc2ccc3ccccc3c2[n+]1C)/C=C1\Sc2ccc3ccccc3c2N1C in this assay:
## Output 1

## Input Outcome logged for COCCCNC(=S)N1CCN(c2nc(-c3cccc(OC)c3)cs2)CC1 in this assay:
## Output 0

## Input Outcome logged for CCN(CC)S(=O)(=O)c1ccc2nc(CSc3nnnn3-c3ccc(O)cc3)[nH]c2c1 in this assay:
## Output 0

## Input Outcome logged for COc1cccc(CN(C)CC(=O)Nc2sc3c(c2C#N)CCC3)c1 in this assay:
## Output 0

## Input Outcome logged for O=C(Nc1c[nH]c(=O)[nH]c1=O)OCc1ccccc1 in this assay:
## Output 0

## Input Outcome logged for CS(=O)(=O)c1ccc(C(=O)OCC(=O)NNC(=O)COc2ccc(Cl)cc2)cc1 in this assay:
## Output 0

## Input Outcome logged for N#Cc1ccc(C(=O)Nc2cccc3cccnc23)c(F)c1 in this assay:
## Output 1

## Input Outcome logged for NC(=O)c1cc(S(=O)(=O)NCCCc2ccco2)cs1 in this assay:
## Output 0

## Input Outcome logged for CCOC(=O)c1ccc2c(c1)nc(SCC(=O)NC(C)C)n2CC in this assay:
## Output 0

## Input Outcome logged for CN(C)c1ccc(-n2cccc2/C=N/n2cnnc2)cc1 in this assay:
## Output 0

## Input Outcome logged for COC(=O)c1ccc(OCC(=O)NC(C)(C)C)cc1 in this assay:
## Output 1

## Input Outcome logged for CCN1C(=O)[C@@H]2[C@@H](c3ccc(-c4ccccc4)cc3)N3CCCC[C@@]3(C(=O)OC)[C@@H]2C1=O in this assay:
## Output 0

## Input Outcome logged for CCOC(=O)c1ccc(-n2c(CCC(=O)O)ccc2-c2ccccc2)cc1 in this assay:
## Output 0

## Input Outcome logged for CSc1ccc(C#N)cc1NC(=O)c1cccc(Cl)c1 in this assay:
## Output 0

## Input Outcome logged for COc1ccc(NC(=O)c2ccco2)cc1NC(=O)c1ccc(C#N)cc1F in this assay:
## Output 0

## Input Outcome logged for CCCCCCSc1ccc([C@@H]2[C@@H]3C(=O)N(CC)C(=O)[C@@H]3[C@]3(C(=O)OC)CCCCN23)cc1OC in this assay:
## Output 0

## Input Outcome logged for CCCCCCSc1ccc([C@@H]2[C@H]3C(=O)N(CC)C(=O)[C@H]3[C@]3(C(=O)OC)CCCCN23)cc1 in this assay:
## Output 1

## Input Outcome logged for Cc1ccc(Cl)cc1NC(=O)COC(=O)C1CCCCC1 in this assay:
## Output 0
